The measurements presented in this section are drawn from paper PMC12114297.

# measurement_target: BChE from equine serum (eqBuChE) (Equus caballus, UniProt P81908)
# Construct: BChE from equine serum (BChE, EC 3.1.1.8); purchased Sigma-Aldrich (St. Louis, MO, USA); host or cells: equine serum
# Sequence (P81908 whole entry): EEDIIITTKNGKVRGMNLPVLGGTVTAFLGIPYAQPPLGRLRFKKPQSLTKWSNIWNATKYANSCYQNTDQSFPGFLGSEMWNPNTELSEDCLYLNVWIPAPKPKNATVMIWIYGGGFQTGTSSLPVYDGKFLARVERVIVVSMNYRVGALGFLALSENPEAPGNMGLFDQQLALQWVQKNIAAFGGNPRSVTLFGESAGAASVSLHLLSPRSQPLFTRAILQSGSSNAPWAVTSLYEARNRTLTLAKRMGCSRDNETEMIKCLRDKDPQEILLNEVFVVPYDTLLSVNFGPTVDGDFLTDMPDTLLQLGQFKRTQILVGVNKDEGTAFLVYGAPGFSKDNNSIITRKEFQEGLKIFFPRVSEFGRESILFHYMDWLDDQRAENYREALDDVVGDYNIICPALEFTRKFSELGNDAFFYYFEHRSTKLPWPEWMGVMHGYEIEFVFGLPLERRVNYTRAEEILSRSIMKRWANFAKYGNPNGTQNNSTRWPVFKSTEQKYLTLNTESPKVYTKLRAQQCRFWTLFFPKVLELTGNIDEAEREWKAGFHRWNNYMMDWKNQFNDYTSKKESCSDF
# protocol_details: biochemical
# condition_parameters: 20 μM; average ± standard error (n = 3)
assay_endpoint: BChE % of Inhibition (Conc. 20 μM) (%)
Give bare numbers, in %.

Please review the following examples before continuing.
O=C1C(=O)N(Cc2cn(CCOc3cc(=O)oc4ccccc34)nn2)c2ccc([N+](=O)[O-])cc21 [Compound 6a6]: 4.89
Cc1ccc2c(c1)C(=O)C(=O)N2Cc1cn(CCCOc2cc(=O)oc3ccccc23)nn1 [Compound 6b7]: 4.88
O=C1C(=O)N(Cc2cn(CCCCOc3cc(=O)oc4ccccc34)nn2)c2ccc([N+](=O)[O-])cc21 [Compound 6c6]: 4.15

Lab note: each molecule below needs its BChE % of Inhibition (Conc. 20 μM) filled in.
1. Cc1ccc2c(c1)C(=O)C(=O)N2Cc1cn(CCOc2cc(=O)oc3ccccc23)nn1 [Compound 6a7]
2. O=C1C(=O)N(Cc2cn(CCCOc3cc(=O)oc4ccccc34)nn2)c2ccc([N+](=O)[O-])cc21 [Compound 6b6]
3. Cc1ccc2c(c1)C(=O)C(=O)N2Cc1cn(CCCCOc2cc(=O)oc3ccccc23)nn1 [Compound 6c7]

Response:
1: 2.91; 2: 5.89; 3: 10.32

* * *

# measurement_target: BChE from equine serum (eqBuChE) (Equus caballus)
# Construct: BChE from equine serum (BChE, EC 3.1.1.8); purchased Sigma-Aldrich (St. Louis, MO, USA); host or cells: equine serum
# protocol_details: biochemical
# condition_parameters: read-out: BChE % of Inhibition (Conc. 20 μM), 20 μM; average ± standard error (n = 3)
assay_endpoint: inhibition at 20 µM
Number first, unit second.

Sample records with inhibition at 20 µM:
O=C1C(=O)N(Cc2cn(CCCOc3cc(=O)oc4ccccc34)nn2)c2ccccc21: 69.2%
O=C1C(=O)N(Cc2cn(CCCOc3cc(=O)oc4ccccc34)nn2)c2ccc(Cl)cc21: 61.6%

Request: Check the records and state inhibition at 20 µM for O=C1C(=O)N(Cc2cn(CCCOc3cc(=O)oc4ccccc34)nn2)c2ccc(I)cc21
Response: 61.6%
